biological target: human ApoC3 (human); test: SPR pH 7.4, antibody immobilized
Sequence (chain, as listed by the source): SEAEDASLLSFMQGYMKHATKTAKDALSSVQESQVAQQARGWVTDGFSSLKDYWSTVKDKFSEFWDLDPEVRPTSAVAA
READOUT_KIND: Kd (nM)
Form entry: value (nM) — number only.

Field: example entries. Status: answers known.
[[record]]
binder = "mAb13 (antibody, V domains shown) VH: QLLESGGGLVQPGGSLRLSCAASGFTFSTYSMRWVRQVPGKGLEWVSSIHTEGGGTAYRDSVKGRFTISRDNSKNTLYLQMNSLRAEDTAVYYCVIAGYSDWGQGTLVTVSS VL: DIVMTQSPLSLPVTPGEPASISCKTSQGLVHSDGKTYFYWYLQKPGQSPQLLIYQVSNRASGVPDRFSGSGSGTDFTLKISRVEAEDVGVYYCAHGTYYPHTFGQGTRLEIK"
readout_kind = "Kd"
display_unit = "nM"
numeric_value = 1000

[[record]]
binder = "mAb1 (antibody, V domains shown) VH: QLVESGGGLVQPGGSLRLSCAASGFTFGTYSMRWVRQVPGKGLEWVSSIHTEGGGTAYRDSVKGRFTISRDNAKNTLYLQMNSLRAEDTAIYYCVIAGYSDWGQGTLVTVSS VL: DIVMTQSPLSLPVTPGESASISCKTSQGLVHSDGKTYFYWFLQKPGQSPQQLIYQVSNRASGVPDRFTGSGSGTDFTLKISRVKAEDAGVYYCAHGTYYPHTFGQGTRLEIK"
readout_kind = "Kd"
display_unit = "nM"
numeric_value = 73.9


Then there is this binder:
Q) Given mAb16 (antibody, V domains shown) VH: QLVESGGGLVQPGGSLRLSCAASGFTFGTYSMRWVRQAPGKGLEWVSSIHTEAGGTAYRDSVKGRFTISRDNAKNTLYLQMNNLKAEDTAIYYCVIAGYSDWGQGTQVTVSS VL: DIVMTQSPLSLPVTPGESASISCKTSQGLVHSGGKTYFYWFLQKPGQSPQQLIYQVSNRASGVPDRFTGSGSGTDFTLKISRVEAEDAGVYYCAHGTYYPHTFGSGTRLEIK , respond with its Kd.
A) 596
